# Test system: SF-539
# measurement-description: NCI tumour cell line growth inhibition, 48 h
The source made the active and inactive calls. No stated cut-off is given here; in the data, active = GI50 up to about 1.1 µM and inactive = higher.
# output must be one of true (1) for active, false (0) for inactive

molecule: O=C(O)c1[nH]c2c([N+](=O)[O-])cc([N+](=O)[O-])cc2c1C(=O)O
qualitative-label: false (0)

molecule: CC1=C(C(=O)NNC(=O)C[N+](C)(C)C)CC(C(=O)NNC(=O)C[N+](C)(C)C)=C(C)N1
qualitative-label: false (0)

molecule: Nc1nc(O)c([N+](=O)[O-])c(NCCOCP(=O)(O)O)n1
qualitative-label: false (0)

What is the recorded call for this molecule in the test? Nc1nc(SC/C=C/c2ccccc2)c2[nH]cnc2n1 false (0)
